- Test system: K. pneumoniae ATCC 10031 (SEN) and K. pneumoniae ATCC 700603 (MDR)
- experiment: Adaptive laboratory evolution (ALE), relative MIC of evolved lines
- Type: cell-based, Klebsiella pneumoniae
- protocol conditions: Klebsiella pneumoniae ATCC 10031 (KP-SEN), evolved line 10
Where a SMILES comes first, the peptide text is derived from it. Bridges are numbered along the chain shown (N, C = ends). [ ]: non-standard residue; d: D form. The star is where a group is joined. X1 = NC[C@@H](CC(=O)*)c1cccc(Cl)c1; Dab = NCC[C@H](N)C(=O)O; Dap = NC[C@H](N)C(=O)O
Label label 1 when Relative MIC is strictly below 100; at or above that, label label 0.

Previously resolved entries follow.
Determine if CC(C)c1ccc(Cn2ccc3c4c(N)nc(NC5CC5)nc4ccc32)cc1 [SCH79797] shows Relative MIC strictly lower than 100. label 1

Please check: Relative MIC for C[C@H]1c2cccc(O)c2C(=O)C2=C(O)[C@]3(O)C(=O)C(C(N)=O)=C(O)[C@@H](N(C)C)[C@@H]3[C@@H](O)[C@@H]21 [Doxycycline] , strictly under 100 or not? label 0

For this compound, is Relative MIC lower than 100? C[C@@H]1CN2c3c(cc4c(N5C(=O)OC[C@@H]5C)noc4c3F)CC3(C(=O)NC(=O)NC3=O)[C@H]2[C@H](C)O1 [Zoliflodacin] label 0

Report whether reported Relative MIC is lower than 100 (strictly) for C[C@@H](O)[C@H]1C(=O)N2C(C(=O)O)=C(S[C@H]3CC[S@@+]([O-])C3)S[C@H]12 [Sulopenem] label 1

Please state whether Relative MIC is below 100 for CN[C@@H]1[C@@H](O[C@H]2O[C@H](CO)[C@@H](N)[C@H](O)[C@H]2O)OC2C[C@@H](N)[C@@H](O[C@H]3[C@H](O)[C@@H](O)[C@H](N)C[C@@H]3N)OC2[C@@H]1O (stereo partly shown) [Apramycin] label 0

Determine whether this compound shows Relative MIC lower than 100 (ties excluded): CN(C)[C@@H]1C(O)=C(C(N)=O)C(=O)[C@@]2(O)C(O)=C3C(=O)c4c(O)c(NC(=O)CN5CCCC5)cc(F)c4C[C@H]3C[C@@H]12 [Eravacycline] label 0

API: the following record is the query input.
Item CC(C)C[C@@H]1NC(=O)[C@@H](Cc2ccccc2)NC(=O)[C@H](CCN)NC(=O)[C@@H](NC(=O)[C@H](CN)NC(=O)[C@@H](NC(=O)C[C@H](CN)c2cccc(Cl)c2)[C@@H](C)O)CCNC(=O)[C@H]([C@@H](C)O)NC(=O)[C@H](CCN)NC(=O)[C@H](CCN)NC1=O [SPR206] (X1-T[Dap][Dab][Dab][dF]L[Dab][Dab]T; lactam 3-C (inferred); N-terminus assumed) : Relative MIC beneath 100, strictly? label 0

---

- System: A. baumannii ATCC 17978 (SEN) and A. baumannii ATCC BAA-1605 (MDR)
- experiment: Adaptive laboratory evolution (ALE), relative MIC of evolved lines
- Type: cell-based, Acinetobacter baumannii
- protocol conditions: AB-SEN (ATCC 17978); evolved line 5; MIC of evolved line / MIC of ancestor
assay metric: Relative MIC
Number only, please.

Examples with answers:
GET /values?readout=Relative MIC&item= CN[C@@H]1[C@@H](O[C@H]2O[C@H](CO)[C@@H](N)[C@H](O)[C@H]2O)OC2C[C@@H](N)[C@@H](O[C@H]3[C@H](O)[C@@H](O)[C@H](N)C[C@@H]3N)OC2[C@@H]1O (stereo partly shown) 32

Relative MIC lookup needed for Nc1nc(-n2cc(C(=O)O)c(=O)c3cc(F)c(N4CC(O)C4)c(Cl)c32)c(F)cc1F , thanks. 512

Reported Relative MIC for CN(C)[C@@H]1C(O)=C(C(N)=O)C(=O)[C@@]2(O)C(O)=C3C(=O)c4c(O)c(NC(=O)CN5CCCC5)cc(F)c4C[C@H]3C[C@@H]12 : what is it? 128

Others:
Look at this compound and give its reported Relative MIC. C[C@H]1c2cccc(O)c2C(=O)C2=C(O)[C@]3(O)C(=O)C(C(N)=O)=C(O)[C@@H](N(C)C)[C@@H]3[C@@H](O)[C@@H]21 32

---

Measured MIC of evolved line, listed per entry.
- Test system: P. aeruginosa ATCC BAA-3107 (SEN) and P. aeruginosa LESB58 (MDR)
- experiment: Adaptive laboratory evolution (ALE), relative MIC of evolved lines
- Assay type: cell-based, Pseudomonas aeruginosa
- protocol conditions: PA-SEN (ATCC BAA 3107); evolved line 4
Where a SMILES comes first, the peptide text is derived from it. Bridges are numbered along the chain shown (N, C = ends). [ ]: non-standard residue; d: D form. The star is where a group is joined. X1 = NC[C@@H](CC(=O)*)c1cccc(Cl)c1; Dab = NCC[C@H](N)C(=O)O; Dap = NC[C@H](N)C(=O)O
State just the number; it will be interpreted in µg/mL.

Example results:
MIC of evolved line for Nc1nc(-n2cc(C(=O)O)c(=O)c3cc(F)c(N4CC(O)C4)c(Cl)c32)c(F)cc1F [Delafloxacin] ? 32

Given COc1c(N2C[C@@H]3CCCN[C@@H]3C2)c(F)cc2c(=O)c(C(=O)O)cn(C3CC3)c12 [Moxifloxacin] , state its recorded MIC of evolved line. 128

Entry under review: CC(C)C[C@@H]1NC(=O)[C@@H](Cc2ccccc2)NC(=O)[C@H](CCN)NC(=O)[C@@H](NC(=O)[C@H](CN)NC(=O)[C@@H](NC(=O)C[C@H](CN)c2cccc(Cl)c2)[C@@H](C)O)CCNC(=O)[C@H]([C@@H](C)O)NC(=O)[C@H](CCN)NC(=O)[C@H](CCN)NC1=O [SPR206] (X1-T[Dap][Dab][Dab][dF]L[Dab][Dab]T; lactam 3-C (inferred); N-terminus assumed) . Reported MIC of evolved line? 16

# input for lookup
What value of measured MIC of evolved line is listed for C[C@H]1c2cccc(O)c2C(=O)C2=C(O)[C@]3(O)C(=O)C(C(N)=O)=C(O)[C@@H](N(C)C)[C@@H]3[C@@H](O)[C@@H]21 [Doxycycline] ? 256

---

- Tested on: A. baumannii ATCC 17978 (SEN) and A. baumannii ATCC BAA-1605 (MDR)
- experiment: Adaptive laboratory evolution (ALE), relative MIC of evolved lines
- Assay type: cell-based, Acinetobacter baumannii
- protocol conditions: Acinetobacter baumannii ATCC 17978 (AB-SEN), evolved line 2
- Excerpt: Using the same set of bacterial strains, we initiated adaptive laboratory evolution with the aim to maximize the level of antibiotic resistance in the populations achieved during a longer, but fixed time period. […] A robotic liquid handling system was used to automatically prepare a 11 to 16-step serial dilution in 384-well microtiter plates (Greiner). […] Cell growth was monitored by measuring the optical density (OD600 values, using Biotek Synergy microplate reader). […]
Where a SMILES comes first, the peptide text is derived from it. Bridges are numbered along the chain shown (N, C = ends). [ ]: non-standard residue; d: D form. The star is where a group is joined. X1 = NC[C@@H](CC(=O)*)c1cccc(Cl)c1; Dab = NCC[C@H](N)C(=O)O; Dap = NC[C@H](N)C(=O)O
# Relative MIC values compiled below
The answer should be a number; do not append a unit.

Please review the entries below; each comes with its answer.
Item CC(C)c1ccc(Cn2ccc3c4c(N)nc(NC5CC5)nc4ccc32)cc1 [SCH79797] has what recorded Relative MIC? 1

Returns the measured Relative MIC for the input compound. Input: C[C@H]1c2cccc(O)c2C(=O)C2=C(O)[C@]3(O)C(=O)C(C(N)=O)=C(O)[C@@H](N(C)C)[C@@H]3[C@@H](O)[C@@H]21 [Doxycycline] 64

Tell me the measured Relative MIC of CNC(C)C1CCC(N)C(OC2C(N)CC(N)C(OC3OCC(C)(O)C(NC)C3O)C2O)O1 (centres unmarked) [Gentamicin] , please. 512

Look up Relative MIC: CN(C)[C@@H]1C(O)=C(C(N)=O)C(=O)[C@@]2(O)C(O)=C3C(=O)c4c(O)c(NC(=O)CN5CCCC5)cc(F)c4C[C@H]3C[C@@H]12 [Eravacycline] 128

// query Relative MIC value for entry CC(C)C[C@@H]1NC(=O)[C@@H](Cc2ccccc2)NC(=O)[C@H](CCN)NC(=O)[C@@H](NC(=O)[C@H](CN)NC(=O)[C@@H](NC(=O)C[C@H](CN)c2cccc(Cl)c2)[C@@H](C)O)CCNC(=O)[C@H]([C@@H](C)O)NC(=O)[C@H](CCN)NC(=O)[C@H](CCN)NC1=O [SPR206] (X1-T[Dap][Dab][Dab][dF]L[Dab][Dab]T; lactam 3-C (inferred); N-terminus assumed) 8192

Name the reported Relative MIC value associated with the compound C[C@@H](O)[C@H]1C(=O)N2C(C(=O)O)=C(S[C@H]3CC[S@@+]([O-])C3)S[C@H]12 [Sulopenem] 1

Others:
Reported Relative MIC, compound CN[C@@H]1[C@@H](O[C@H]2O[C@H](CO)[C@@H](N)[C@H](O)[C@H]2O)OC2C[C@@H](N)[C@@H](O[C@H]3[C@H](O)[C@@H](O)[C@H](N)C[C@@H]3N)OC2[C@@H]1O (some centres unmarked) [Apramycin] : ____ 64

Form field: reported Relative MIC of Nc1nc(-n2cc(C(=O)O)c(=O)c3cc(F)c(N4CC(O)C4)c(Cl)c32)c(F)cc1F [Delafloxacin] 128
